Each entry below lists one item and its recorded Percent Effect value.
# Tested on: Wolbachia pipientis
# MEASUREMENT_NOTES: Anti-Wolbachia Cell-Based Screen
# Assay type: functional
# Design: scale not given: in the data most compounds retested in dose-response had high values
# CONDITION_DETAILS: 5 µM
Hit rate of the full screen: of about 48,000 compounds, about 13,000 (27%) showed an effect of 50% or more. The list shows a part of the results.
State the answer as a number, implicitly in %.

Worked examples follow.
COMPOUND	Percent Effect (%)
Cc1nc(CN2CCCN(C(=O)c3c(C)noc3C)CC2)cs1	14.06
CC(C)c1nccn1C(C)C(=O)N1CCN(c2ccccc2Cl)CC1 (stereo unspecified)	-35.17
Cc1nc(CN2CCCN(C(=O)c3c(C)oc(C)c3C)CC2)cs1	108.1

Ask: Specify measured Percent Effect for Cc1oc(C)c(C(=O)N2CCCN(Cc3cscn3)CC2)c1C .
Reply: 2.495

Ask: Specify measured Percent Effect for Cc1ocnc1C(=O)N1CCCN(Cc2cscn2)CC1 .
Reply: 126.9

Ask: Specify measured Percent Effect for Cc1oc(C)c(C(=O)N2CCN(Cc3cscn3)CC2)c1C .
Reply: 159.3

----------
Each entry below lists one item and its recorded Percent Effect value.
# System: Wolbachia pipientis
# MEASUREMENT_NOTES: Anti-Wolbachia Cell-Based Screen
# Type: functional
# Parameters: scale not given: in the data most compounds retested in dose-response had high values
# CONDITION_DETAILS: 5 µM
In all, about 48,000 compounds went through this assay and about 13,000 (27%) showed an effect of 50% or more. This is one part of the list.
State the answer as a number, implicitly in %.

Worked examples follow.
COMPOUND	Percent Effect (%)
CCc1nccn1CCC(=O)N1CC[C@@H](c2sccc2C)[C@H](O)C1	-1.934
CN1CC(=O)N(c2cnn(C)c2)CC12CCN(Cc1ccccc1)C2.O=C(O)C(F)(F)F.O=C(O)C(F)(F)F (stereo not given)	-7.753
Cc1ccc(CN2Cc3nccn3CC(Cn3cccn3)C2)s1.O=C(O)C(F)(F)F (stereo not given)	93.7

Ask: Specify measured Percent Effect for CC1N(c2cnn(C)c2)C(=O)COC12CCN(Cc1ccco1)CC2.O=C(O)C(F)(F)F (stereo not given) .
Reply: 117

Ask: Specify measured Percent Effect for CCO[C@@H]1CC[C@H]2[C@H]1OCCN2Cc1ccc(F)cc1 .
Reply: 96.26

Ask: Specify measured Percent Effect for CC(C)Cc1cc(CNC(=O)c2ccccc2C2CCNC2)no1 (stereo not given) .
Reply: 0.6659

Ask: Specify measured Percent Effect for CN1N=C(C(=O)N2CCCC(CCc3ccccc3)C2)CCC1=O (stereo not given) .
Reply: -44.22

----------
# System: Wolbachia pipientis
# MEASUREMENT_NOTES: Anti-Wolbachia Cell-Based Screen
# Type: functional
# Set-up: scale not given: in the data most compounds retested in dose-response had high values
# CONDITION_DETAILS: 5 µM
Hit rate of the full screen: of about 48,000 compounds, about 13,000 (27%) showed an effect of 50% or more. The list shows a part of the results.
Each entry below lists one item and its recorded Percent Effect value.
State the answer as a number, implicitly in %.

Worked examples follow.
COMPOUND	TEST_TARGET	Percent Effect / %
COCc1ccccc1C(=O)N1CCN(C2=NCC(C)(C)S2)CC1	Wolbachia pipientis	-20.33
CC1(c2ccccc2)CCC(=O)N(CCCN2CCOCC2)C1 (configuration not stated)	Wolbachia pipientis	6.196

Please look at the following compound next.
Ask: Quote Percent Effect with test system Wolbachia pipientis for Cc1ncc2c(n1)CN(CC1CCCCO1)CC2 (configuration not stated)
Reply: 1.379

----------
Each entry below lists one item and its recorded Percent Effect value.
# Tested on: Wolbachia pipientis
# MEASUREMENT_NOTES: Anti-Wolbachia Cell-Based Screen
# Type: functional
# Set-up: scale not given: in the data most compounds retested in dose-response had high values
# CONDITION_DETAILS: 5 µM
The campaign covered roughly 48,000 compounds. About 13,000 (27%) showed an effect of 50% or more. This is one part of the list.
Don't forget the unit after the value.

Worked examples follow.
MOLECULE	Percent Effect
CC(C)CNC(=O)Nc1ccc(CN2CCOC2=O)cc1	-13.36%
CN(C)C(=O)N1CCc2c(CNc3ncccn3)cncc2C1	-13.49%
CS(=O)(=O)NCc1cncc2c1CCN(C(=O)c1ccccn1)C2	100.5%
Cn1ccnc1CN1CCCC(Cc2ccccn2)C1 (stereo unspecified)	-12.05%
COC(=O)C(CNC(=O)Nc1nncs1)Cc1ccc(O)cc1 (stereo unspecified)	-7.051%
CC(C)NC(=O)N1CCc2c(CNc3ncccn3)cncc2C1.Cl	-8.609%

Ask: Specify measured Percent Effect for CCN1C(=O)[C@]2(CC[C@@H]3CN(C(=O)NCC(C)C)C[C@@H]32)N=C1C .
Reply: 1.741%

Ask: Specify measured Percent Effect for COCCOc1ccc(NC(=O)N2CCCC2c2ccsc2)cn1 (stereo unspecified) .
Reply: -8.185%

Ask: Specify measured Percent Effect for O=S(=O)(CCCS(=O)(=O)c1ccc2c(c1)OCCCO2)c1ccccc1 .
Reply: -9.516%

Ask: Specify measured Percent Effect for Cc1occc1C(=O)N1CCc2c(CNc3ncccn3)cncc2C1.Cl .
Reply: -10.41%

Ask: Specify measured Percent Effect for Cc1cccc(C(=O)N2CCc3c(COCC4CC4)cncc3C2)n1 .
Reply: -8.984%

----------
# Tested on: Wolbachia pipientis
# MEASUREMENT_NOTES: Anti-Wolbachia Cell-Based Screen
# Assay type: functional
# Design: scale not given: in the data most compounds retested in dose-response had high values
# CONDITION_DETAILS: 5 µM
Screen size: about 48,000 compounds; about 13,000 (27%) showed an effect of 50% or more. Some of the results follow.
MEASURED_PROPERTY: Percent Effect (%)
State the answer as a number, implicitly in %.

CCOCc1nc(N2CCCC2)sc1C(=O)NCCC(=O)OCC 118

Ask: Specify measured Percent Effect for O=C(NCCCc1ccco1)c1ccc(N2CCOCC2)cc1 .
Reply: -6.417

Ask: Specify measured Percent Effect for CCOCc1nc(N2CCOCC2)sc1C(=O)NCc1ccco1 .
Reply: 132.8

Ask: Specify measured Percent Effect for O=C(NCc1ccco1)Nc1ccc2nc(N3CCOCC3)oc2c1 .
Reply: -0.2531

Ask: Specify measured Percent Effect for CCOCc1nc(N2CCOCC2)sc1C(=O)NCCCc1ccco1 .
Reply: 102.3

Ask: Specify measured Percent Effect for Cc1nc(CCCNC(=O)c2coc(CN3CCOCC3)c2)sc1C .
Reply: -5.742

----------
# Test system: Wolbachia pipientis
# MEASUREMENT_NOTES: Anti-Wolbachia Cell-Based Screen
# Format: functional
# Parameters: scale not given: in the data most compounds retested in dose-response had high values
# CONDITION_DETAILS: 5 µM
Hit rate of the full screen: of about 48,000 compounds, about 13,000 (27%) showed an effect of 50% or more. This is one part of the list.
Each entry below lists one item and its recorded Percent Effect value.
State the answer as a number, implicitly in %.

Worked examples follow.
COMPOUND	MEASURED_PROPERTY	RESULT_NUMBER
CN1CCN(C(=O)c2ccc3c(c2)[nH]c(=O)n3C2CCCC2)CC1	Percent Effect	14.39
CC(NC(=O)NCCCO)c1ccc(-c2ccncc2)cc1 (configuration not stated)	Percent Effect	6.546
COC(=O)CCC(=O)Nc1ccc(Br)c(C)n1	Percent Effect	-4.996
O=C(c1ccncc1Cl)N1CCN(Cc2ccco2)C(CCO)C1 (configuration not stated)	Percent Effect	-0.1352
CCN(CC)c1ccc(NC(=O)N2CCc3sccc3C2)cn1	Percent Effect	-4.731
COc1c(Cl)cc(C(=O)NCCNc2ncccn2)cc1Cl	Percent Effect	11.68

Ask: Specify measured Percent Effect for CC(C)(C)c1nc(CN2CCC3(CCCO3)CCC2=O)no1 (configuration not stated) .
Reply: -4.31

Ask: Specify measured Percent Effect for O=c1[nH]c2nc(NCC3CCCO3)ncc2c(=O)n1-c1ccc(F)cc1 (configuration not stated) .
Reply: -3.035

Ask: Specify measured Percent Effect for COc1ccc(Cl)cc1NCC(=O)NCCNc1ncccn1 .
Reply: 100.4

Ask: Specify measured Percent Effect for CCC[C@@H](NC(N)=O)C(=O)N1CCc2c(Cl)cccc2C1 .
Reply: 5.459

Ask: Specify measured Percent Effect for COc1ccc(Cl)cc1NCC(=O)N(Cc1ccccn1)C1CC1 .
Reply: -7.935

Ask: Specify measured Percent Effect for COCc1ncn(Cc2nc(-c3ccc(OC)cc3F)oc2C)n1 .
Reply: -0.9498

----------
Each entry below lists one item and its recorded Percent Effect value.
# System: Wolbachia pipientis
# MEASUREMENT_NOTES: Anti-Wolbachia Cell-Based Screen
# Type: functional
# Design: scale not given: in the data most compounds retested in dose-response had high values
# CONDITION_DETAILS: 5 µM
Among all 48,000 compounds or so, about 13,000 (27%) showed an effect of 50% or more. This is one part of the list.
State the answer as a number, implicitly in %.

Worked examples follow.
MOLECULE	MEASURED_PROPERTY	UNIT_ABBREV	RESULT_NUMBER
CC(=O)NCC(=O)N1CCOCC(Cc2ccc3c(ccn3C)c2)C1 (configuration not stated)	Percent Effect	%	143.9
CCc1nc(CNC2CCN(c3ccc(OC)cc3)CC2)cs1	Percent Effect	%	-5.711
O=C(CCCc1cn[nH]c1)N1CCOCC(O)C1 (configuration not stated)	Percent Effect	%	-4.397
CN(CCN1CCCC1=O)CC(c1cccs1)N1CCOCC1 (configuration not stated)	Percent Effect	%	-4.192
COCCC(=O)N1CCOCC(Cc2ccc3c(ccn3C)c2)C1 (configuration not stated)	Percent Effect	%	165.7
CC(=O)N1CCOCC(Cc2ccc3c(ccn3C)c2)C1 (configuration not stated)	Percent Effect	%	138.8

Ask: Specify measured Percent Effect for Cc1cccc(N2CCCC3(C2)CN(S(=O)(=O)C2CC2)CCO3)c1.O=C(O)C(F)(F)F (configuration not stated) .
Reply: -4.65

Ask: Specify measured Percent Effect for CN(C)C(=O)Cn1ccc2cc(NC(=O)N3CCOCC3)ccc21 .
Reply: -7.307

Ask: Specify measured Percent Effect for CC(=O)NCC(=O)N1CCC(C2CCN(Cc3ccc(Cl)cc3)C2)CC1 (configuration not stated) .
Reply: -7.699

Ask: Specify measured Percent Effect for CCCC(=O)NC(C)(C)Cc1ccccc1OC .
Reply: 8.655

Ask: Specify measured Percent Effect for CC(=O)N1CCOCC(Cc2ccc3c(ccn3C(C)=O)c2)C1 (configuration not stated) .
Reply: 130

Ask: Specify measured Percent Effect for Cc1ncc2c(n1)CN(Cc1ncc(C(C)(C)C)o1)CC2 .
Reply: 13.07

Ref: ChEMBL document CHEMBL3988442
